# method_summary: Elimination of the molecules: cumulative urinary and faecal excretion 0-72 hours
# Format: in vivo, mouse
# run_parameters: cumulative excretion 0-72 hours, urine + faeces
readout_kind: Urinary and faecal elimination 0-72 hours (Total) (%)

{"compound": "CCN(CC)CCNC(=O)c1ccc2cc(I)ccc2n1.Cl.Cl [compound 31]", "result_number": 91.2}
{"compound": "CCN(CC)CCNC(=O)c1cnc2cc(I)ccc2n1.Cl.Cl [compound 46]", "result_number": 88.2}
{"compound": "CCN(CC)CCNC(=O)c1ccc(I)cc1 [BZA, N-(2-diethylaminoethyl)-4-iodobenzamide, reference compound]", "result_number": 87.9}

---

# method_summary: Elimination of the molecules: cumulative urinary and faecal excretion 0-72 hours
# Assay type: in vivo, mouse
# run_parameters: cumulative excretion 0-72 hours, urine, mice in metabolic cages
Counter-ions that a name gives are not always drawn.
Quick reference for Urinary elimination 0-72 hours (Urine) among some molecules
readout_kind: Urinary elimination 0-72 hours (Urine) (%)

{"molecule": "CCN(CC)CCNC(=O)c1c[nH]c2ccc(I)cc2c1=O [compound 35, dihydrochloride]", "readout_kind": "Urinary elimination 0-72 hours (Urine)", "result_number": 23.8}
{"molecule": "CCN(CC)CCNC(=O)c1cc2c(I)cccc2s1.Cl [compound 13]", "readout_kind": "Urinary elimination 0-72 hours (Urine)", "result_number": 52.6}
{"molecule": "CCN(CC)CCNC(=O)c1cc2c(I)cccc2cn1 [compound 39, dihydrochloride]", "readout_kind": "Urinary elimination 0-72 hours (Urine)", "result_number": 49.9}
{"molecule": "CCN(CC)CCNC(=O)c1ccc2cc(I)ccc2n1.Cl.Cl [compound 31]", "readout_kind": "Urinary elimination 0-72 hours (Urine)", "result_number": 80.7}
{"molecule": "CCN(CC)CCNC(=O)c1nc2ccccn2c1I [compound 16, dihydrochloride]", "readout_kind": "Urinary elimination 0-72 hours (Urine)", "result_number": 52.6}

---

Quick reference for Biodistribution, Mean, kidney among some compounds
# Tested on: grafted B16 F0 murine melanoma tumour
# method_summary: Biodistribution of the ^125I-labelled molecules in the melanoma-bearing mouse (autoradiography of whole-body sections)
# run_parameters: kidney; 3 H
Structures can show the parent of a compound that is named as a salt.
readout_kind: Biodistribution, Mean, kidney

{"compound": "CCN(CC)CCNC(=O)c1ccc2cncc(I)c2n1.Cl.Cl", "target_desc": "grafted B16 F0 murine melanoma tumour", "result_number": 1.51}
{"compound": "CCN(CC)CCNC(=O)c1c[nH]c2ccc(I)cc2c1=O [compound 35, dihydrochloride]", "target_desc": "grafted B16 F0 murine melanoma tumour", "result_number": 0.80}
{"compound": "CCN(CC)CCNC(=O)c1cnc2cc(I)ccc2n1.Cl.Cl", "target_desc": "grafted B16 F0 murine melanoma tumour", "result_number": 9.30}
{"compound": "CCN(CC)CCNC(=O)c1cc2c(I)cccc2cn1 [compound 39, dihydrochloride]", "target_desc": "grafted B16 F0 murine melanoma tumour", "result_number": 2.66}

---

# Tested on: grafted B16 F0 murine melanoma tumour
# method_summary: Biodistribution of the ^125I-labelled molecules in the melanoma-bearing mouse (autoradiography of whole-body sections)
# run_parameters: 3 H after i.v. administration, ^125I-labelled compound
Where a name gives a salt, the structure may show the parent alone.
readout_kind: Concentration of radioactivity, Sc (stomach contents), Mean (% ID/g)

{"compound": "CCN(CC)CCNC(=O)c1ccc2cc(I)ccc2n1.Cl.Cl [compound 31]", "result_number": 34.72}
{"compound": "CCN(CC)CCNC(=O)c1nc2ccccn2c1I [compound 16, dihydrochloride]", "result_number": 30.71}
{"compound": "CCN(CC)CCNC(=O)c1ccc(I)nc1 [compound 7, dihydrochloride]", "result_number": 42.71}
{"compound": "CCN(CC)CCNC(=O)c1cc2cc(I)ccc2[nH]1 [compound 10, hydrochloride]", "result_number": 18.52}
